Attribution: patent US9782400B2

# Test system: HCC78 NSCLC cells
# procedure_details: MTT assay, cell viability of HCC78 cells
# Format: cell-based
# condition_info: Homo sapiens; HCC78 cells, MTT, 72 h treatment
recorded_endpoint: pIC50
Answers are plain numbers, as −log10 of the molar value.

Given the compound COc1ccc(CNC(=O)Cn2nc(-c3ccccc3)c3cnc4ccccc4c32)cc1 and test system HCC78 NSCLC cells, the measured pIC50 is 5.79

* * *

# System: BEAS-2B cells
# procedure_details: MTT assay, normal lung epithelial cells (Example 1A)
# Format: cell-based
# condition_info: Homo sapiens, 72 h treatment
recorded_endpoint: IC50

The molecule listed as COc1ccc(CNC(=O)Cn2nc(-c3ccccc3)c3cnc4ccccc4c32)cc1 shows IC50 equal to 6.08 µM
